Measured target: T1, WNV E protein DIII displayed on yeast (Saccharomyces cerevisiae; West Nile …, UniProt Q9Q6P4 586-705)
T1 construct: domain: DIII; also called WNV DIII
T1 sequence: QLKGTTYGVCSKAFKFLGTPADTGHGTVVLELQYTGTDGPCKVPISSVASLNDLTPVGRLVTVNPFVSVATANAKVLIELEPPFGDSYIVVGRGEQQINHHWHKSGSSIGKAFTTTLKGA
Assay protocol: flow cytometry on yeast displaying WNV E DIII (pYD1); % positive cells
Assay metric: binding result

{"columns": ["Binder", "binding result"],
 "data": [
  ["scFv-Fc 11 (Fc fusion, also called 11 scFv-Fc) QVQLVQSGAEVKKPGASVKVSCKASGYTFSGYSTHWLRQVPGQGLEWIGWDNPSSGDTTYAENFRGRVTLTRDTSITTDYLEVRGLRSDDTAVYYCARGGDDYSFDHWGQGTLVTVSSGGGGSGGGGSGGGGSSSELTQDPAVSVALGQTVRITCRGDSLRSYYASWYQQKPGQAPVLVIYGENNRPSGIPDRFSGSSSGDTASLTITGAQAEDEADYYCNSRDSSDHLLLFGGGTKL", "no binding"],
  ["79 scFv-Fc (Fc fusion, also called scFv-Fc 79; antibody 79 (scFv-Fc)) QVQLVQSGAEVKKPGSSVKVSCKASGGTFSSYAISWVRQAPGQGLEWMGWMNSNTGDTGYAQKFQGRVTMTRNTSTSTAYMELSSLRSEDTAVYYCAKISNYHYYAMDVWGQGTLVTVSSGGGGSGGGGSGGGGSLPVLTQPPSASGTSGQTVTISCSGGSSNIGSHLVTWYQQFPGTAPKVLIHTNDQRPSGVPDRISGSKSGTSASLAISGLQSDDEGDYYCAAWDDSLNGYVFGTGTKVTVLG", "no binding"],
  ["84 scFv-Fc (Fc fusion, also called scFv-Fc 84) QVQLVQSGAEVKKPGASVKVSCKASGYTFSGYSTHWLRQVPGQGLEWIGWDNPSSGDTTYAENFRGRVTLTRDTSITTDYLEVRGLRSDDTAVYYCARGGDDYSFDHWGQGTLVTVSSGGGGSGGGGSGGGGSQSVLTQPPSVSVAPGKTARIPCGGNNSGTKSVHWYQQKPGQAPVLVIYDDRVRPSGIPERFSGSNSGDTATLTISRVAAGDEADYYCQVSDGSGDPPTWVFGGGTRLTVL", "no binding"],
  ["scFv-Fc 71 (Fc fusion, also called 71 scFv-Fc) QVQLVQSGAEVKKPGASVKVSCKASGYTFSGYSTHWLRQVPGQGLEWIGWDNPSSGDTTYAENFRGRVTLTRDTSITTDYLEVRGLRSDDTAVYYCARGGDDYSFDHWGQGTLVTVSSGGGGSGGGGSGGGGSSYELTQPPSASGTTGQRVTISCSGSSSNIGSNTVNWYQQLPGTAPKLLIYSNNQRPSGVPDRLSGSKSGTSASLAISGLQSEDEADYYCAAWDARLTGPLFGGGTKLSVLR", "no binding"]
]}

Hi there! I need binding result for each item below, if you can.
1. 10 (Fc fusion, also called scFv-Fc 10; 10 scFv-Fc) scFv-Fc chain: QVQLVQSGAEVKKPGSSVKVSCKASGYTFSGYSTHWLRQVPGQGLEWIGWDNPSSGDTTYAENFRGRVTLTRDTSITTDYLEVRGLRSDDTAVYYCARGGDDYSFDHWGQGTLVTVSSSGGGSGGGGSGGGGSQTVVTQEPSFSVSPGGTITLTCGLSSGSVFTSYYPSWYQQTPGQAPRTLIYSTNTRSSGVPDRFSGSILGNKAALTITGAQADDESDYYCVLYMGSGIGVFGTGTKVTVLG
2. scFv-Fc 15 (Fc fusion, also called 15 scFv-Fc) QVQLVQSGAEVKKPGASVKVSCKASGYTFSGYSTHWLRQVPGQGLEWIGWDNPSSGDTTYAENFRGRVTLTRDTSITTDYLEVRGLRSDDTAVYYCARGGDDYSFDHWGQGTLVTVSSGGGGSGGGGSGGGGSQSALTQPASVSGSPGQSITISCTGTNSDVGIYNLVSWYQQHPGKAPKLMIYDVSNRPSGVSSRFSGSNSGNTATLTISGLQAEDEADYYCSAHAGDNTQFGGGTKLTVLS

1: no binding; 2: no binding

Sourced from patent US20090130123A1
